Data origin, for the record: patent US8722674B2

Measured melting point accompanies every entry in the list below.
Where a name gives a salt, the structure may show the parent alone.

CN(C)c1nc(N)nc(NCc2ccoc2)n1
151.6 to 152 °C

Problem: Which measured melting point value corresponds to COc1ccc(Nc2nc(N)nc(N(C)C)n2)cc1 ?
Solution: 173 to 176 °C

Problem: Which measured melting point value corresponds to CCCCCCc1ccc(Nc2nc(N)nc(N(C)C)n2)cc1 ?
Solution: 132 to 168 °C

Problem: Which measured melting point value corresponds to Cc1ccccc1Nc1nc(N)nc(N(C)C)n1 ?
Solution: 122 to 143 °C

Problem: Which measured melting point value corresponds to CN(C)c1nc(N)nc(NCc2ccc3c(c2)OCO3)n1 (as salt: HCl) ?
Solution: 193.7 to 219.6 °C

Problem: Which measured melting point value corresponds to CN(C)c1nc(N)nc(Nc2ccc(C(C)(C)C)cc2)n1 ?
Solution: 253 to 263 °C

Problem: Which measured melting point value corresponds to CC(Nc1nc(N)nc(N(C)C)n1)c1cccc2ccccc12 (stereo not shown) ?
Solution: 73 to 76 °C

Problem: Which measured melting point value corresponds to CN(C)c1nc(N)nc(NCCCN2CCCC2=O)n1 ?
Solution: 176.5 to 177 °C

Problem: Which measured melting point value corresponds to CN(C)c1nc(N)nc(NCCN2CCOCC2)n1 ?
Solution: 138.2 to 141.6 °C

Problem: Which measured melting point value corresponds to CN(C)c1nc(N)nc(N2CCCCCC2)n1 ?
Solution: 240 to 249 °C
